Measured IC50 accompanies every entry in the list below.
# assayed-system: c-KIT kinase (Homo sapiens)
# Sequence (P10721 544-976): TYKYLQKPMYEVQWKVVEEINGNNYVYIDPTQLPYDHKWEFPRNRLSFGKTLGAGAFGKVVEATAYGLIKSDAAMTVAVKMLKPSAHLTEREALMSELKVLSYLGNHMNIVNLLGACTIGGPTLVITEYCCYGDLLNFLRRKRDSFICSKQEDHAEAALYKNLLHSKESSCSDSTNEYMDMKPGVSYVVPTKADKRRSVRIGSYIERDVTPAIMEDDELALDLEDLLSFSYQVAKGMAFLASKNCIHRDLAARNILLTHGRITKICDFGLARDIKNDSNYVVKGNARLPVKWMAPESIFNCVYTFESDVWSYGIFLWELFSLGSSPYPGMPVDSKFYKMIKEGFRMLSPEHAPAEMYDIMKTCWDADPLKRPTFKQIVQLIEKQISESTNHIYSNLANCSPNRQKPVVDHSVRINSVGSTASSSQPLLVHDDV
# assay-info: c-KIT kinase Assay
# Format: biochemical
# Parameters: cKIT residues T544-V976; GST (N); TEV cleavage site (internal); purchased deCODE Biostructures
# cond: enzymatic assay, ATP 200 µM; read-out: KIT (wt) IC50
# Protocol: In this assay, the oxidation of NADH (measured by decrease in absorbance at 340 nm) was continuously monitored spectrophotometrically. […] The absorption at 340 nm was monitored continuously for 2 hours at 30 °C on Synergy 2 (BioTeK). The reaction rate was calculated using the 0 to 1 h time frame. […] IC50 values were calculated from a series of percent inhibition values determined at a range of inhibitor concentrations using software routines as implemented in the GraphPad Prism software package. […]

Please review the entries below; each comes with its answer.
| item-smiles | experimental-readout | recorded-result |
| --- | --- | --- |
| CCn1c(=O)c(-c2cc(NC(=O)Nc3cc(C)cc(F)c3)c(F)cc2Cl)cc2cnc(NC)cc21 | IC50 | < 10 nM |
| CCn1c(=O)c(-c2cc(NC(=O)Nc3ccccc3)c(F)cc2I)cc2cnc(NC)cc21 | IC50 | 10 to 100 nM |
| CCn1c(=O)c(-c2cc(NC(=O)Nc3ccc(F)c(CN4CCN(C)CC4)c3)c(F)cc2F)cc2cnc(NC)cc21 | IC50 | < 10 nM |

# next compound below
Input line: Entry under review: CCn1c(=O)c(-c2cc(NC(=O)Nc3ccccc3)c(F)cc2F)cc2cnc(NCCOC)cc21 . Reported IC50?
Output line: < 10 nM

meta.source: patent EP3722296B1
